# assay_target: full-length human GLP-1R with an N-terminal FLAG tag, overexpressed on HEK-293T cells (human, UniProt P43220 24-463)
# assay_info: cell-based or functional assay
Starred links: 1 amine or outer side, 2 acyl side, 3 side chain; linkers in the order of their positions; H or OH if unused. Non-standard residues stand in square brackets, D forms with d. Groups on a side chain read outwards from the residue. No end group written: not given here. *: point of attachment. C20 diacid = O=C(O)CCCCCCCCCCCCCCCCCCC(=O)*; C18 diacid = O=C(O)CCCCCCCCCCCCCCCCC(=O)*; C17 diacid = O=C(O)CCCCCCCCCCCCCCCC(=O)*; γGlu = O=C(O)[C@H](CCC(=O)[*:2])N[*:1]; NMeY = CN[C@@H](Cc1ccc(O)cc1)C(=O)O; AEEA = NCCOCCOCC(=O)O; Aib = CC(C)(N)C(=O)O
measured_property: Human GLP1R cAMP EC50, HEK293T (nM)
Numeric answer only, unit nM assumed.

Ask: May I ask what Human GLP1R cAMP EC50, HEK293T has been recorded for Me-Y[Aib]EGTFISDYSIALDKIAQ[Aib]K([AEEA-AEEA-γGlu-γGlu-C18 diacid])FVEWLLAQRG-OH [Compound No. 173] ?
Result: 105

Ask: Please answer likewise for [NMeY][dA]EGTFISDYSI[Aib]LDR[Aib]AQ[Aib]K([AEEA-AEEA-γGlu-γGlu-C18 diacid])FVNWLLAQRG-OH [Compound No. 217]
Result: 135

Ask: Please answer likewise for [NMeY][Aib]EGTFISDYSIALDRIHQQNFVNWLLAQK([AEEA-AEEA-γGlu-C18 diacid])PSSGAPPPS-NH2 [Compound No. 190]
Result: 97.7

Ask: Please answer likewise for YXEGTFISDYSIAXDKIXQADFVEWLLAQRG (N-terminus H; Aib at 2, 14; Km at 18 = Lys(2OEGgE-C18DA); C-terminus OH) [Compound No. 166]
Result: 74.1

Ask: Please answer likewise for [NMeY][Aib]EGTFISDYSI[Aib]LDR[Aib]AQ[Aib]K([AEEA-AEEA-γGlu-γGlu-C18 diacid])FVNWLLAQRG-NH2 [Compound No. 204]
Result: 6.61

Ask: Please answer likewise for H-Y[Aib]EGTFISDYSIALDRAAQ[Aib]K([AEEA-AEEA-γGlu-γGlu-C18 diacid])FVEWLLAQRG-OH [Compound No. 206]
Result: 26.3

Ask: Please answer likewise for [NMeY][Aib]EGTFISDYSIALDR[Aib]AQ[Aib]K([AEEA-AEEA-γGlu-γGlu-C17 diacid])FVNWLLAQKG-OH [Compound No. 200]
Result: 77.6

Ask: Please answer likewise for [NMeY][Aib]EGTFISDYSI[Aib]LDR[Aib]AQ[Aib]K([AEEA-AEEA-γGlu-γGlu-C20 diacid])FVNWLLAQRG-OH [Compound No. 159]
Result: 11.7
